Provide the reported functional reporter gene assay (% inhibition), 0.2 µg/mL mAb of each item.
STUDY_SYSTEM: T1, human IL-1RAcP on 293T/17-FR cells (human, UniProt Q9NPH3 21-570)
T1 sequence (looked up): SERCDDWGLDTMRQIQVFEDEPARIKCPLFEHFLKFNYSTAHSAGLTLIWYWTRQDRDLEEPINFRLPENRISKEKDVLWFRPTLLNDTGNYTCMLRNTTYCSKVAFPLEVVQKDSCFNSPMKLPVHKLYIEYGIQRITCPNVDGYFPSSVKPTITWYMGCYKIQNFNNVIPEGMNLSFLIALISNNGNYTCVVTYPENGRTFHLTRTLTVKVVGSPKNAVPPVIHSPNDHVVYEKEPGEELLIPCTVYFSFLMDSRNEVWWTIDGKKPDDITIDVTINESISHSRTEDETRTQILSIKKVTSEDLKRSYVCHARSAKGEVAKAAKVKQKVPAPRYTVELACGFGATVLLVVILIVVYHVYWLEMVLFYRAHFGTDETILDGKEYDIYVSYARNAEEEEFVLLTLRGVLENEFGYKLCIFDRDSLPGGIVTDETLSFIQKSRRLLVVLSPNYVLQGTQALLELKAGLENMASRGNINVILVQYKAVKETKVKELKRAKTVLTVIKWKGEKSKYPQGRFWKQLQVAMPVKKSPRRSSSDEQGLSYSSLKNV
ASSAY_EXPLANATION: cell-based or functional assay
# number only, unit % dropped from output

Check the records and state functional reporter gene assay (% inhibition), 0.2 µg/mL mAb for P013.S.01.B.A03 (antibody, V domains shown, rabbit monoclonal antibody; also called P013.A.00088.A07) VH: QEQLEESGGDLVQPEGSLTVTCTASGFSFSFGYYMCWVRQAPGKGLEWIACIYGDSSDTLYANWAKGRFTVSKTSSTTVTLQMTSLTAADTATYFCARYPGGSYYNLWGPGTRVTVSS VL: ALVMTQTPASVEAAVGGTVTIKCQASQTISINLAWYQQKPGQRPKLLIYYASTLASGVPSRFSGSGSGTEFTLTISGVQSDDAATYYCQQGYTEDNIDNTFGGGTEVVVK
94

Check the records and state functional reporter gene assay (% inhibition), 0.2 µg/mL mAb for P013.S.02.B.D01 (antibody, V domains shown, rabbit monoclonal antibody; also called P013.A.00141.G02) VH: LEQSGGGAEGGLVKPGGSLELCCKASGFSLSSNYWMCWVRQAPGKGLEWIGCIYAGSSDSTYYASWVNGRFTLSRDIDQSTGCLQLNSLTAADTAMYYCASPGYGGYGYYGLWGQGTLVTVSS VL: ALVMTQTPSPVSAAVGGTVTINCQASEDIYSNLAWFQQKPGQPPKLLIYDASTLASGVPSRFSGSGSGTEFTLTISGLQSDDAATYYCLGVYTYISPDGTDNAFGGGTEVVVK
22
